Every entry's value here was drawn from the Kinase Knowledgebase extract (Sharma et al. 2016).

molecular target: PIK3CA (human) (UniProt P42336)
Sequence (P42336 whole entry, looked up): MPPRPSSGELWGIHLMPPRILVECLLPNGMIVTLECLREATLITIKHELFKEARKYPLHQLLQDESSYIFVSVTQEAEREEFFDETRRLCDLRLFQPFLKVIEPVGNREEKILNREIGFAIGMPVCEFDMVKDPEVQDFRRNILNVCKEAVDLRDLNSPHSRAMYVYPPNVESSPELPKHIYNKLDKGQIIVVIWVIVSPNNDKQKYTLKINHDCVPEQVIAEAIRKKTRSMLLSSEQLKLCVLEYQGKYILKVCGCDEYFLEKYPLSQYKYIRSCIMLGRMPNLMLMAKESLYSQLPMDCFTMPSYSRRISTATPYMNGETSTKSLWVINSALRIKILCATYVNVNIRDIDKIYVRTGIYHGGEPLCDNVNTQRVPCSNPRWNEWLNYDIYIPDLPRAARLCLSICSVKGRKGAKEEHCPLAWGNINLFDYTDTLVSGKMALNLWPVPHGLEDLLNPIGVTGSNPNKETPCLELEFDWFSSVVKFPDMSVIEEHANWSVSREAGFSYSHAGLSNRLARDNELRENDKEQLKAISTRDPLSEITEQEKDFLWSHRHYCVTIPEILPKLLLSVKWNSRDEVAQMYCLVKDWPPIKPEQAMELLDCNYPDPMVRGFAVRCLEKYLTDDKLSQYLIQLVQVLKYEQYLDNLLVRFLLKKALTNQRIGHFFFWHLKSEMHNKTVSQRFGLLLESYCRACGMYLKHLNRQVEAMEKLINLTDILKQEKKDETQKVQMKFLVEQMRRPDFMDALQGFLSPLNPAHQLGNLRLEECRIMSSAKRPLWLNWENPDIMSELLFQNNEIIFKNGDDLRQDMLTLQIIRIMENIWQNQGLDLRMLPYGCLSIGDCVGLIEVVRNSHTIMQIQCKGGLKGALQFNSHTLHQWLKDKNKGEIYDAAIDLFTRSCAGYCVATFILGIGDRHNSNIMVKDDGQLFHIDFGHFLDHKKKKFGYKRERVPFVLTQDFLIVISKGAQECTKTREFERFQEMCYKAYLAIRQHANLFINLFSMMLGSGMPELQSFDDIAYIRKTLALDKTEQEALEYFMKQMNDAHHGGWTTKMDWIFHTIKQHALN
property measured: IC50 (µM)

Examples with answers:
Cc1nc(N)nc(-n2c(NC3CCOC3)nc3ccccc32)n1 (configuration not stated) | 3.83
COc1ccc(-c2ccc3c(c2)nc(Nc2ccn[nH]2)n3-c2nc(C)nc(N)n2)cc1CO.COc1ccc(-c2ccc3nc(Nc4ccn[nH]4)n(-c4nc(C)nc(N)n4)c3c2)cc1CO | 0.0943
CNc1nc(C)nc(-n2c(Nc3cc[nH]n3)nc3ccc(-c4cncnc4)cc32)n1 | 0.0581
Cc1nc(NC2CC2)nc(-n2c(Nc3ccn[nH]3)nc3ccccc32)n1 | 4.85
CNc1nc(C)nc(-n2c(Nc3cc[nH]n3)nc3cc(C4=CCNCC4)ccc32)n1.CNc1nc(C)nc(-n2c(Nc3cc[nH]n3)nc3ccc(C4=CCNCC4)cc32)n1 | 4.24

(P) CNc1nc(C)nc(-n2c(Nc3ccc(NC(C)=O)cc3)nc3ccccc32)n1
(Q) COCCNc1nc(C)nc(-n2c(Nc3cc[nH]n3)nc3ccccc32)n1
Which entry shows the lesser value of IC50 here, P or Q ? State the label of the item chosen.
P
(P: 0.0531 µM, Q: 4.55 µM)
